Value source: the supplement of paper PMC10567573

B1: MLL5 (parent)
chain: DCMGIDRQHIPDTYLCERCQPRNL

# Variants of: B1
# method-description: protein stability index of a GFP-peptide fusion (GPS, HEK-293T) (PSI 1-6); higher = more stable;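 note: lentivirally expressed fusions sorted by FACS into six bins by GFP to DsRed ratio, PSI derived from sequencing read proportions per bin multiplied by bin number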
# measurement-context: c terminus: a fixed tail appended
Each entry below carries its reported protein stability index.
Answer as a number with no unit attached.

- sequence-change: "N23G"
  measurement-label: "protein stability index"
  obs-value: 3

Query block: Given the variant "H9Q" , write its reported protein stability index.
Result block: 3.04

Query block: Using known records, supply protein stability index for "R7T"
Result block: 3.02

Query block: Please list protein stability index recorded for the variant "Q20S"
Result block: 3.03
